Test Description: Selectivity index, ratio of CC50 for human MT4 cells to EC50 for reverse transcriptase L100I mutant in human MT4 cells infected HIV1 3B
Outcome Measure: selectivity ratio

Dear colleague, I am looking for the recorded selectivity ratio of the following compound: Cc1cn([C@H]2C[C@H](N=[N+]=[N-])[C@@H](CO)O2)c(=O)[nH]c1=O
> 1990

Next entry: Cc1cc(C#N)cc(C)c1Oc1nc(Nc2ccc(C#N)cc2)nc(N)c1Br
> 853

* * *

Test Description: AUC(0 to t) in Sprague-Dawley rat at 24 mg/kg, po by LC-MS analysis
Type: ADME, organism-based
Test Settings: in vivo
Outcome Measure: AUC(0-t) (ng·h/mL)
Reply numerically in ng·h/mL, unit not repeated.

Dear colleague, I am looking for the recorded AUC(0-t) of the following compound: Cc1cc(/C=C/C#N)cc(C)c1Oc1nc(NC2CCN(Cc3ccc(S(N)(=O)=O)cc3)CC2)nc2ccsc12
2320

* * *

Test Description: Cytotoxicity against human MT4 cells assessed as cell viability after 5 days by MTT assay
Type: cell-based
Outcome Measure: CC50 at 120 h

Check out these entries, answers already filled in.
>>> print(df.to_string())
                                   molecule  readout_value
0  Cc1cc(C#N)cc(C)c1Oc1nc(NC2CCN(Cc3ccc(S(C)(=O)=O)cc3)CC2)nc2sccc12        1.19 µM
1  Cc1cc(/C=C/C#N)cc(C)c1Oc1nc(NC2CCN(Cc3ccc(S(C)(=O)=O)cc3)CC2)nc2ccsc12         1.8 µM
2  Cc1cc(/C=C/C#N)cc(C)c1Oc1nc(NC2CCN(Cc3ccccc3F)CC2)nc2ccsc12        2.48 µM
3  Cc1cc(/C=C/C#N)cc(C)c1Oc1nc(NC2CCN(Cc3ccc(C(N)=O)cc3)CC2)nc2ccsc12      ≥ 3.15 µM
4  Cc1cc(/C=C/C#N)cc(C)c1Oc1nc(NC2CCN(Cc3cccc(C(N)=O)c3)CC2)nc2ccsc12        3.53 µM
5  Cc1cc(C#N)cc(C)c1Oc1nc(NC2CCCN(Cc3ccc(C(N)=O)cc3)C2)nc2ccsc12 (stereo not drawn)        19.5 µM

Dear colleague, I am looking for the recorded CC50 at 120 h of the following molecule: O=C1Nc2ccc(Cl)cc2[C@@](C#CC2CC2)(C(F)(F)F)O1 [EFAVIRENZ]
> 6.33 µM

Next entry: Cc1cc(/C=C/C#N)cc(C)c1Oc1nc(NC2CCN(Cc3cccc(Cl)c3)CC2)nc2ccsc12
4.88 µM

Next entry: Cc1cc(/C=C/C#N)cc(C)c1Oc1nc(NC2CCN(Cc3cccnc3)CC2)nc2ccsc12
3.86 µM

Next entry: Cc1cc(C#N)cc(C)c1Oc1nc(NC2CCN(Cc3ccc(S(N)(=O)=O)cc3)CC2)nc2sccc12
24.1 µM

Next entry: Cc1cc(/C=C/C#N)cc(C)c1Oc1nc(NC2CCN(Cc3ccncc3)CC2)nc2ccsc12
4.78 µM

* * *

Test Description: Selectivity index, ratio of CC50 for human MT4 cells to EC50 for reverse transcriptase Y188L mutant in human MT4 cells infected HIV1 3B
Test Settings: MT4 cells
selectivity ratio strictly less than 20 = MET. Otherwise NOT MET.

See these solved cases before continuing.
>>> print(df.to_string())
                                   molecule  assigned_class
0  Cc1cc(/C=C/C#N)cc(C)c1Oc1nc(NC2CCN(Cc3ccc(Br)cc3)CC2)nc2ccsc12         NOT MET
1  Cc1cc(C#N)cc(C)c1Oc1nc(NC2CCC(NCc3ccc([N+](=O)[O-])cc3)CC2)nc2ccsc12 (centres undefined)             MET
2  Cc1cc(/C=C/C#N)cc(C)c1Oc1nc(NC2CCN(Cc3ccncc3)CC2)nc2ccsc12         NOT MET
3  Cc1cc(C#N)cc(C)c1Oc1nc(NC2CCN(Cc3ccc(S(C)(=O)=O)cc3)CC2)nc2sccc12         NOT MET
4  Cc1cc(/C=C/C#N)cc(C)c1Oc1nc(NC2CCN(Cc3ccccc3C#N)CC2)nc2ccsc12             MET
5  Cc1cc(C#N)cc(C)c1Oc1nc(NC2CCN(Cc3cccc(C(N)=O)c3)CC2)nc2sccc12         NOT MET
6  Cc1cc(C#N)cc(C)c1Oc1nc(NC2CCN(Cc3ccc(S(N)(=O)=O)cc3)CC2C(=O)O)nc2ccsc12 (centres undefined)             MET
7  Cc1cc(C#N)cc(C)c1Oc1nc(NC2CCC(NCc3ccc(O)cc3)CC2)nc2ccsc12 (centres undefined)             MET

Take the molecule Cc1cc(/C=C/C#N)cc(C)c1Oc1nc(NC2CCN(Cc3cccc(Cl)c3)CC2)nc2ccsc12 and say whether its selectivity ratio is less than 20.
NOT MET

Next entry: CCOC(=O)C1CN(Cc2ccc(S(N)(=O)=O)cc2)CCC1Nc1nc(Oc2c(C)cc(C#N)cc2C)c2sccc2n1 (centres undefined)
MET

Next entry: Cc1cc(C#N)cc(C)c1Oc1nc(NC2CCC(NCc3cccc(C(F)(F)F)c3)CC2)nc2ccsc12 (centres undefined)
MET

Next entry: Cc1cc(C#N)cc(C)c1Oc1nc(NC2CCN(Cc3ccc(S(N)(=O)=O)cc3)CC2)nc2ccsc12
NOT MET

Next entry: Cc1cc(/C=C/C#N)cc(C)c1Oc1nc(NC2CCN(Cc3ccccc3Br)CC2)nc2ccsc12
NOT MET

Next entry: Cc1cc(/C=C/C#N)cc(C)c1Oc1nc(NC2CCN(Cc3ccc(C#N)cc3)CC2)nc2ccsc12
NOT MET

Next entry: Cc1cc(C#N)cc(C)c1Oc1nc(NC2CCC(NCc3ccc(C#N)cc3)CC2)nc2ccsc12 (centres undefined)
MET

Next entry: CCOC(=O)c1ccc(CN2CCC(Nc3nc(Oc4c(C)cc(/C=C/C#N)cc4C)c4sccc4n3)CC2)cc1
NOT MET

Next entry: Cc1cc(/C=C/C#N)cc(C)c1Oc1nc(NC2CCN(Cc3cccc(F)c3)CC2)nc2ccsc12
NOT MET

Next entry: Cc1cc(/C=C/C#N)cc(C)c1Oc1nc(NC2CCN(Cc3ccccc3Cl)CC2)nc2ccsc12
NOT MET

Next entry: Cc1cc(C#N)cc(C)c1Oc1nc(NC2CCN(Cc3ccc(S(N)(=O)=O)cc3)CC2F)nc2ccsc12 (centres undefined)
NOT MET

Next entry: Cc1ccccc1CN1CCC(Nc2nc(Oc3c(C)cc(/C=C/C#N)cc3C)c3sccc3n2)CC1
MET

Next entry: CCOC(=O)c1ccc(CN2CCC(Nc3nc(Oc4c(C)cc(C#N)cc4C)c4ccsc4n3)CC2)cc1
NOT MET

Next entry: Cc1cc(/C=C/C#N)cc(C)c1Oc1nc(NC2CCN(Cc3ccc(F)cc3)CC2)nc2ccsc12
MET

Next entry: Cc1ccc(CN2CCC(Nc3nc(Oc4c(C)cc(/C=C/C#N)cc4C)c4sccc4n3)CC2)cc1
NOT MET

Next entry: Cc1cc(C#N)cc(C)c1Oc1nc(NC2CCC(NCc3ccccc3)CC2)nc2ccsc12 (centres undefined)
MET

Next entry: Cc1cc(/C=C/C#N)cc(C)c1Oc1nc(NC2CCN(Cc3cccc(C#N)c3)CC2)nc2ccsc12
NOT MET

Next entry: Cc1cc(/C=C/C#N)cc(C)c1Oc1nc(NC2CCN(Cc3cccc(C(N)=O)c3)CC2)nc2ccsc12
NOT MET

Next entry: Cc1cc(/C=C/C#N)cc(C)c1Oc1nc(NC2CCN(Cc3cccc(Br)c3)CC2)nc2ccsc12
NOT MET

Next entry: Cc1cc(/C=C/C#N)cc(C)c1Oc1nc(NC2CCN(Cc3ccccn3)CC2)nc2ccsc12
NOT MET

Next entry: Cc1cc(/C=C/C#N)cc(C)c1Oc1nc(NC2CCN(Cc3ccccc3F)CC2)nc2ccsc12
MET

Next entry: Cc1cc(C#N)cc(C)c1Oc1nc(NC2CCN(Cc3ccc(C(N)=O)cc3)CC2)nc2sccc12
MET

Next entry: Cc1cc(/C=C/C#N)cc(C)c1Oc1nc(NC2CCN(Cc3cccnc3)CC2)nc2ccsc12
NOT MET

Next entry: Cc1cc(C#N)cc(C)c1Oc1nc(NC2CCC(NCc3ccc(F)cc3)CC2)nc2ccsc12 (centres undefined)
MET

Next entry: COC(=O)c1ccc(CN2CCC(Nc3nc(Oc4c(C)cc(C#N)cc4C)c4ccsc4n3)CC2)cc1
NOT MET

Next entry: Cc1cc(C#N)cc(C)c1Oc1nc(NC2CCC(NCc3ccc(S(C)(=O)=O)cc3)CC2)nc2ccsc12 (centres undefined)
MET
